# system-under-test: hSTING-WT (Homo sapiens, UniProt Q86WV6, H232R)
# Sequence (Q86WV6 whole entry H232R): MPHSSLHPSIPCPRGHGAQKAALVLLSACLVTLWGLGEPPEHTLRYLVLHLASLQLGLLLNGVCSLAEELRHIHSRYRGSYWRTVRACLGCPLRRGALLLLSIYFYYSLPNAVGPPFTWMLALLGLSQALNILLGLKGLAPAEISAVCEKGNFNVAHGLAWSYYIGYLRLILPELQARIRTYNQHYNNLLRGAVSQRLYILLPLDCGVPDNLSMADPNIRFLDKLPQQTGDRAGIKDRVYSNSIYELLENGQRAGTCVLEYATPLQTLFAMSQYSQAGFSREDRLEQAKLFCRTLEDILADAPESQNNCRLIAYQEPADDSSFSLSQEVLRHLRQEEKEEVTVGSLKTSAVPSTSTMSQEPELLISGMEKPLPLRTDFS
# assay-overview: HTRF STING competition binding (cGAMP displacement) assay, hSTING-WT
# condition-info: HTRF displacement assay, means from at least three repeated experiments
readout-name: IC50 (µM)
Kindly provide the numeric value in µM only, without the unit symbol.

>  <record-smiles>
COc1cc2c(=O)c3cc(F)cc4c3n(c2c(C)c1C)C(=O)C4

>  <system-under-test>
hSTING-WT (Homo sapiens, UniProt Q86WV6, H232R)

>  <IC50, µM>
88.1

$$$$

Next up:
input: Query (molecule): COc1cc2c(=O)c3c(F)ccc4c3n(c2c(C)c1C)C(=O)C4 ; field requested: IC50
output: 7.67
